TARGET OF ASSAY: Delta-type opioid receptor (Homo sapiens)
TEST PROTOCOL: Displacement of [3H]DPDPE from human delta opioid receptor expressed in CHO cell membranes by microbeta scintillation counting analysis
RUN PARAMETERS: read-out: Ki
METRIC NAME: Ki (nM)
Answer in nM, number only, no unit symbol.

Worked set:
CPD SMILES: O=C1/C(=C/c2ccc(F)cc2)C[C@@]2(O)[C@H]3Cc4ccc(O)c5c4[C@@]2(CCN3CC2CC2)[C@H]1O5
UNITS SYMBOL: nM
Ki: 34.5
//
CPD SMILES: O=C1/C(=C/c2ccccc2)C[C@@]2(O)[C@H]3Cc4ccc(O)c5c4[C@@]2(CCN3CC2CC2)[C@H]1O5
UNITS SYMBOL: nM
Ki: 2.81

Below: the item to evaluate.
Kindly note the recorded Ki for `N#Cc1ccc(/C=C2\C[C@@]3(O)[C@H]4Cc5ccc(O)c6c5[C@@]3(CCN4CC3CC3)[C@@H](O6)C2=O)cc1` , which is 18.1

====

TARGET OF ASSAY: Mu-type opioid receptor (Homo sapiens, UniProt P35372)
Sequence (P35372 whole entry): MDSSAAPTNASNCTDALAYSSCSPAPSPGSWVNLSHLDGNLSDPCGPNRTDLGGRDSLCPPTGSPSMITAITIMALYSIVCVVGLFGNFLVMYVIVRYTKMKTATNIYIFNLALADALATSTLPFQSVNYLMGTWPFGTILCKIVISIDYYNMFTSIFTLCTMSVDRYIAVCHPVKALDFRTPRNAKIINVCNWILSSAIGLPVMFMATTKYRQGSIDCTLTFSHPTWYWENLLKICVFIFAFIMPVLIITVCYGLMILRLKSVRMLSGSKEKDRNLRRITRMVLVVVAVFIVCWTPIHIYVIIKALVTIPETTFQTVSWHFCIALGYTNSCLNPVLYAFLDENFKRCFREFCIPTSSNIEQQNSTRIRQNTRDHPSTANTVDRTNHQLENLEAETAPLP
TEST PROTOCOL: Displacement of [3H]DAMGO from human mu opioid receptor expressed in CHO cell membranes by microbeta scintillation counting analysis
RUN PARAMETERS: read-out: Ki
METRIC NAME: log10(Ki) (log10 of the value in nM)
Reminder: these figures are log10 of reported Ki, in nM before transformation.

CPD SMILES: O=C1/C(=C/c2ccc(Cl)cc2)C[C@@]2(O)[C@H]3Cc4ccc(O)c5c4[C@@]2(CCN3CC2CC2)[C@H]1O5
log10(Ki): 0.79

// log10(Ki) (Mu-type opioid receptor (Homo sapiens, UniProt P35372)) for `O=C1/C(=C/c2ccccc2)C[C@@]2(O)[C@H]3Cc4ccc(O)c5c4[C@@]2(CCN3CC2CC2)[C@H]1O5` = 1.04

// log10(Ki) (Mu-type opioid receptor (Homo sapiens, UniProt P35372)) for `N#Cc1ccc(/C=C2\C[C@@]3(O)[C@H]4Cc5ccc(O)c6c5[C@@]3(CCN4CC3CC3)[C@@H](O6)C2=O)cc1` = 1.51

// log10(Ki) (Mu-type opioid receptor (Homo sapiens, UniProt P35372)) for `O=C1/C(=C/c2ccc(Br)cc2)C[C@@]2(O)[C@H]3Cc4ccc(O)c5c4[C@@]2(CCN3CC2CC2)[C@H]1O5` = 0.70

// log10(Ki) (Mu-type opioid receptor (Homo sapiens, UniProt P35372)) for `O=C1/C(=C/c2ccc(C(F)(F)F)cc2)C[C@@]2(O)[C@H]3Cc4ccc(O)c5c4[C@@]2(CCN3CC2CC2)[C@H]1O5` = 2.28

====

TARGET OF ASSAY: Kappa-type opioid receptor (Homo sapiens, UniProt P41145)
Sequence (P41145 whole entry): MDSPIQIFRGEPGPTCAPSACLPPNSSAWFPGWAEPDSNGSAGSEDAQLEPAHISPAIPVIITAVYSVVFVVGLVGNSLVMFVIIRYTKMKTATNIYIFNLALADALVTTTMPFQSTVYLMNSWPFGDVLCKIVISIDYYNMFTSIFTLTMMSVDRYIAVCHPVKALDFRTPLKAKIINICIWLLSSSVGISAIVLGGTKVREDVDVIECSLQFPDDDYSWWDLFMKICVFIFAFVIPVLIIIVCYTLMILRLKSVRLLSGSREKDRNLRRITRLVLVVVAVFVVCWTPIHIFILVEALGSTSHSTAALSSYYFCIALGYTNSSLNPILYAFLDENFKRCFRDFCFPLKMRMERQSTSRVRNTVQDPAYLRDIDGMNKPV
TEST PROTOCOL: Displacement of [3H]U-69,593 from human kappa opioid receptor expressed in CHO cell membranes by microbeta scintillation counting analysis
RUN PARAMETERS: read-out: Ki
# note: boundary value 50 nM maps to false (0); Ki below it maps to true (1)

Worked examples, 3 compounds total:
CPD SMILES: N#Cc1ccc(/C=C2\C[C@@]3(O)[C@H]4Cc5ccc(O)c6c5[C@@]3(CCN4CC3CC3)[C@@H](O6)C2=O)cc1
ANSWER LABEL: false (0)
--
CPD SMILES: O=C1/C(=C/c2ccc(Cl)cc2)C[C@@]2(O)[C@H]3Cc4ccc(O)c5c4[C@@]2(CCN3CC2CC2)[C@H]1O5
ANSWER LABEL: false (0)
--
CPD SMILES: O=C1/C(=C/c2ccc(F)cc2)C[C@@]2(O)[C@H]3Cc4ccc(O)c5c4[C@@]2(CCN3CC2CC2)[C@H]1O5
ANSWER LABEL: false (0)

Request: Does the reported Ki of the following compound sit strictly below 50 nM? `CN(C)c1ccc(/C=C2\C[C@@]3(O)[C@H]4Cc5ccc(O)c6c5[C@@]3(CCN4CC3CC3)[C@@H](O6)C2=O)cc1`
Result: true (1)

Request: Does the reported Ki of the following compound sit strictly below 50 nM? `O=C1/C(=C/c2ccccc2)C[C@@]2(O)[C@H]3Cc4ccc(O)c5c4[C@@]2(CCN3CC2CC2)[C@H]1O5`
Result: true (1)

Request: Does the reported Ki of the following compound sit strictly below 50 nM? `COc1ccc2c3c1O[C@H]1C(=O)/C(=C/c4ccccc4)C[C@@]4(O)[C@@H](C2)N(CC2CC2)CC[C@]314`
Result: false (0)

Request: Does the reported Ki of the following compound sit strictly below 50 nM? `O=C1/C(=C/c2ccc(Br)cc2)C[C@@]2(O)[C@H]3Cc4ccc(O)c5c4[C@@]2(CCN3CC2CC2)[C@H]1O5`
Result: false (0)

====

TARGET OF ASSAY: Delta-type opioid receptor (Homo sapiens, UniProt P41143)
Sequence (P41143 whole entry): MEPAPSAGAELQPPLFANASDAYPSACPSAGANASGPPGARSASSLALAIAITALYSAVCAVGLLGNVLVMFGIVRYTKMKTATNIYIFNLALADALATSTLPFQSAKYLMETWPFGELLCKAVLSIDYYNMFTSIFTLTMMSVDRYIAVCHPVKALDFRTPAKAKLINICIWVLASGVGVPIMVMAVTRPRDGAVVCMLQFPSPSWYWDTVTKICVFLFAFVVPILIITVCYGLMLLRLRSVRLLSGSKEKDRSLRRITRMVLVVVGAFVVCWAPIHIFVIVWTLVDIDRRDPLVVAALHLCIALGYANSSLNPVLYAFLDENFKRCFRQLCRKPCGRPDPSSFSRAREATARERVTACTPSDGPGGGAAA
TEST PROTOCOL: Displacement of [3H]DPDPE from human delta opioid receptor expressed in CHO cell membranes by microbeta scintillation counting analysis
RUN PARAMETERS: read-out: Ki
# note: boundary value 4 nM maps to false; Ki below it maps to true

CPD SMILES: O=C1/C(=C/c2cccc(F)c2)C[C@@]2(O)[C@H]3Cc4ccc(O)c5c4[C@@]2(CCN3CC2CC2)[C@H]1O5
ANSWER LABEL: false

Request: Does the reported Ki of the following molecule sit strictly below 4 nM? `O=C1/C(=C/c2ccc(I)cc2)C[C@@]2(O)[C@H]3Cc4ccc(O)c5c4[C@@]2(CCN3CC2CC2)[C@H]1O5`
Result: true

Request: Does the reported Ki of the following molecule sit strictly below 4 nM? `O=C1/C(=C/c2ccccc2F)C[C@@]2(O)[C@H]3Cc4ccc(O)c5c4[C@@]2(CCN3CC2CC2)[C@H]1O5`
Result: true

Request: Does the reported Ki of the following molecule sit strictly below 4 nM? `COc1ccc2c3c1O[C@H]1C(=O)/C(=C/c4ccccc4)C[C@@]4(O)[C@@H](C2)N(CC2CC2)CC[C@]314`
Result: false

Request: Does the reported Ki of the following molecule sit strictly below 4 nM? `COc1ccc(/C=C2\C[C@@]3(O)[C@H]4Cc5ccc(O)c6c5[C@@]3(CCN4CC3CC3)[C@@H](O6)C2=O)cc1`
Result: true

====

// values below are reported pKi
TARGET OF ASSAY: Delta-type opioid receptor (Homo sapiens)
TEST PROTOCOL: Displacement of [3H]DPDPE from human delta opioid receptor expressed in CHO cell membranes by microbeta scintillation counting analysis
RUN PARAMETERS: read-out: Ki
Scale explanation: pKi corresponds to minus log10 of a concentration expressed in moles per litre.

Worked set:
CPD SMILES: CN(C)c1ccc(/C=C2\C[C@@]3(O)[C@H]4Cc5ccc(O)c6c5[C@@]3(CCN4CC3CC3)[C@@H](O6)C2=O)cc1
pKi: 8.43
//
CPD SMILES: O=C1/C(=C/c2ccc(Cl)cc2)C[C@@]2(O)[C@H]3Cc4ccc(O)c5c4[C@@]2(CCN3CC2CC2)[C@H]1O5
pKi: 8.09
//
CPD SMILES: O=C1/C(=C/c2ccc(C(F)(F)F)cc2)C[C@@]2(O)[C@H]3Cc4ccc(O)c5c4[C@@]2(CCN3CC2CC2)[C@H]1O5
pKi: 7.08

Below: the item to evaluate.
Kindly note the recorded pKi for `O=C1/C(=C/c2ccc(Br)cc2)C[C@@]2(O)[C@H]3Cc4ccc(O)c5c4[C@@]2(CCN3CC2CC2)[C@H]1O5` , which is 8.38
